Entries and their IC50 values follow.
# SYSTEM: Zap-70 (Homo sapiens)
# Construct: Kinases are expressed as either kinase domains or full length constructs; made in house
# Sequence (P43403 1-619): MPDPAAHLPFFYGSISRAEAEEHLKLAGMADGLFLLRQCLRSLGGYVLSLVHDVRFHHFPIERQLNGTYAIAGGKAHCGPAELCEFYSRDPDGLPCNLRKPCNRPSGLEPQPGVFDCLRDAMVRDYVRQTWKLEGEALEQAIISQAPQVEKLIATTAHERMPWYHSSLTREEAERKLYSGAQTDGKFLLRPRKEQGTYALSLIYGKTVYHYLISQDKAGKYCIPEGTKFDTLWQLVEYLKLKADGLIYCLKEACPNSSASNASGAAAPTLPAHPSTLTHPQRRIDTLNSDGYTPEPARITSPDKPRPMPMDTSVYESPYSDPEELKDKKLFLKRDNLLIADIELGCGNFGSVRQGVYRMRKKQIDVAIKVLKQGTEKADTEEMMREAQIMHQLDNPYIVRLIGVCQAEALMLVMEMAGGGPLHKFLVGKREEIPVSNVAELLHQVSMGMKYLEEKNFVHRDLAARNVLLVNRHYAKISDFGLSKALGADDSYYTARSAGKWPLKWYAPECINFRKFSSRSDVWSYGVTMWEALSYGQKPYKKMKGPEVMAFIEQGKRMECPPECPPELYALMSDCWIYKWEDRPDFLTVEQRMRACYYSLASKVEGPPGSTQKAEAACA
# TEST METHOD NOTES: Kinase inhibition assay (33P transfer), Zap-70
# Type: biochemical
# STATED CONDITIONS: read-out: Zap-1

| MOLECULE | IC50 |
| --- | --- |
| CCN(c1ccccc1)c1ncnc(Nc2cc(OC)c(OC)c(OC)c2)n1 | > 11.8 µM |
| COc1cc(Nc2ncnc(NC3CCc4ccccc43)n2)cc(OC)c1OC (stereo not drawn) | > 11.4 µM |
| O=c1[nH]c2ccccc2n1-c1ncnc(Nc2ncccn2)n1 | > 14.7 µM |
| COc1ccc(Nc2ncnc(N3CCCc4ccc(C(F)(F)F)cc43)n2)cc1OC | > 10.4 µM |

Can you look up IC50 on Zap-70 (Homo sapiens) for COC(=O)c1cc(OC)c(OC)cc1Nc1ncnc(-n2c(N)nc3ccccc32)n1 ?
> 10.7 µM

Write down the reported IC50 of CN(c1cccc(Cl)c1)c1ncnc(Nc2ncccn2)n1 , test system: Zap-70 (Homo sapiens).
> 14.3 µM
